test: Retardation factor, Rf of the compound on silica gel GF containing EtOH-HOAc-H2O (20:2:2)/0.1 M phosphate buffer at 7.4 by chromatography; type: physicochemical; details: pH 7.4

compound | Rf
Nc1ncnc2c1ncn2[C@@H](CO)O[C@@H](CO)CSCC[C@@H](N)C(=O)O | 0.72
Nc1ncnc2c1nnn2[C@@H]1O[C@H](CSCCC(N)C(=O)O)[C@@H](O)[C@H]1O (single isomer, unassigned) | 0.72
Nc1ncnc2c1ncn2[C@@H](CO)O[C@@H](CO)CSCC[C@H](N)C(=O)O | 0.72

----------
biological target: Acetylserotonin O-methyltransferase (Bos taurus); assay: Inhibition of bovine pineal gland HIOMT at 0.2 mM by radiochemical technique
Binary call on inhibition: Y from 9% upward, N beneath that.

molecule | assigned.class
Nc1nnnc2c1ncn2[C@@H](CO)O[C@@H](CO)CSCC[C@@H](N)C(=O)O | Y
Nc1ncnc2c1nnn2[C@@H]1O[C@H](CSCCC(N)C(=O)O)[C@@H](O)[C@H]1O (single isomer, unassigned) | Y
Nc1ncnc2c1ncn2[C@@H]1O[C@H](CSCC[C@H](N)C(=O)O)[C@@H](O)[C@H]1O [S-ADENOSYLHOMOCYSTEINE] | Y
Nc1ncnc2c1nnn2[C@@H](CO)O[C@@H](CO)CSCC[C@@H](N)C(=O)O | Y
C[S+](CC[C@@H](N)C(=O)O)C[C@H](CO)O[C@H](CO)n1cnc2c(N)ncnc21 (stereo partly drawn) | N
Nc1ncnc2c1ncn2[C@@H](CO)O[C@@H](CO)CSCC[C@H](N)C(=O)O | N
Nc1ncnc2c1ncn2[C@@H]1O[C@H](C[S+]([O-])CC[C@@H](N)C(=O)O)[C@@H](O)[C@H]1O (stereo partly drawn) | N

----------
Listing of entries alongside the reported inhibition.
molecular target: Acetylserotonin O-methyltransferase (Bos taurus) (UniProt P10950); assay: Inhibition of bovine pineal gland HIOMT at 2 mM by radiochemical technique
Sequence (P10950 whole entry): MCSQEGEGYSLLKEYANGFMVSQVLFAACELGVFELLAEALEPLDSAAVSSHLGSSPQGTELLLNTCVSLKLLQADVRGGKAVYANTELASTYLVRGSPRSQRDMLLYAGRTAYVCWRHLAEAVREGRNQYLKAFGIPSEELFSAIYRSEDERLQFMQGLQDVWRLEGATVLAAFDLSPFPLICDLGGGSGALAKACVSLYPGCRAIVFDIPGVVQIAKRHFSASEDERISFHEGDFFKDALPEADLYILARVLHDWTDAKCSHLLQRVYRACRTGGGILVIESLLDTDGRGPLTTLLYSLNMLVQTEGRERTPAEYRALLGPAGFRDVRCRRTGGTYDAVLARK
value.type: inhibition (%)

molecule | value.type | value
Nc1ncnc2c1nnn2[C@@H](CO)O[C@@H](CO)CSCC[C@@H](N)C(=O)O | inhibition | 31
Nc1ncnc2c1ncn2[C@@H]1O[C@H](C[S+]([O-])CC[C@@H](N)C(=O)O)[C@@H](O)[C@H]1O (stereo partly drawn) | inhibition | 0
Nc1ncnc2c1ncn2[C@@H](CO)O[C@@H](CO)CSC[C@@H](N)C(=O)O | inhibition | 0

----------
test: Retardation factor, Rf of the compound on silica gel GF containing 5% Na2HPO4 by chromatography; format: physicochemical
value.type: Rf

compound | value
Nc1ncnc2c1nnn2[C@@H]1O[C@H](CSCCC(N)C(=O)O)[C@@H](O)[C@H]1O (single isomer, unassigned) | 0.71
Nc1nnnc2c1ncn2[C@@H]1O[C@H](CSCCC(N)C(=O)O)[C@@H](O)[C@H]1O (single isomer, unassigned) | 0.7
Nc1nnnc2c1ncn2[C@@H](CO)O[C@@H](CO)CSCC[C@@H](N)C(=O)O | 0.69
Nc1ncnc2c1nnn2[C@@H](CO)O[C@@H](CO)CSCC[C@@H](N)C(=O)O | 0.69
Nc1ncnc2c1ncn2[C@@H]1O[C@H](C[S+]([O-])CC[C@@H](N)C(=O)O)[C@@H](O)[C@H]1O (stereo partly specified) | 0.72
C[S+](CC[C@H](N)C(=O)[O-])C[C@H]1O[C@@H](n2cnc3c(N)ncnc32)[C@H](O)[C@@H]1O (stereo partly specified) | 0.34
